Test system: Mycobacterium scrofulaceum
Assay: Potency index, ratio of isoniazid MIC to test compound MIC for antibacterial activity against Mycobacterium scrofulaceum assessed as inhibition of microbial growth incubated for 1 week by MABA method
Assay type: functional
Conditions: time 1 weeks
What Ratio was measured for each of the following?
Give bare numbers.

COc1ccc(Nc2nnnn2-c2cccc(Cl)c2)cc1 yielded Ratio of 32

COc1ccc(Nc2nnnn2-c2cccc(F)c2)cc1 yielded Ratio of 4

COc1ccc(Nc2nnnn2-c2ccc(Cl)cc2)cc1 yielded Ratio of 4

Now, please, on to the next compound.
COc1ccc(-n2nnnc2Nc2cccc(F)c2)cc1 yielded Ratio of 4

###

System: Pseudomonas aeruginosa
Test: Antibacterial activity against Pseudomonas aeruginosa NCTC 6749 assessed as bacterial growth inhibition measured after 18 hrs by two-fold serial microdilution method
Assay type: functional
quantity_name: MIC (µg/mL)
One number for each entry, in µg/mL.

Answered examples (2):
COc1ccc(-n2nnnc2Nc2ccc(F)cc2)cc1 yielded MIC of 128

COc1ccc(Nc2nnnn2-c2ccc(F)cc2)cc1 yielded MIC of 256

***
COc1ccc(Nc2nnnn2-c2ccccc2F)cc1 yielded MIC of 256

###

Tested on: Staphylococcus epidermidis
Assay: Antibacterial activity against Staphylococcus epidermidis ATCC 35984/RP62A assessed as bacterial growth inhibition measured after 18 hrs by two-fold serial microdilution method
Format: functional
What MIC was measured for each of the following?

Answered examples (4):
COc1ccc(Nc2nnnn2-c2cccc(Br)c2)cc1 yielded MIC of > 256 µg/mL

COc1ccc(NC(=S)Nc2cccc(F)c2)cc1 yielded MIC of > 256 µg/mL

COc1ccc(Nc2nnnn2-c2cccc(Cl)c2)cc1 yielded MIC of > 256 µg/mL

COc1ccc(-n2nnnc2Nc2ccc(Cl)cc2)cc1 yielded MIC of 128 µg/mL

For each entry beneath this line, provide reported MIC.
1. COc1ccc(-n2nnnc2Nc2ccccc2F)cc1
2. COc1ccc(Nc2nnnn2-c2ccccc2Br)cc1
3. COc1ccc(NC(=S)Nc2cccc(Br)c2)cc1
4. COc1ccc(-n2nnnc2Nc2ccccc2Br)cc1
5. O=C(O)c1cn(C2CC2)c2cc(N3CCNCC3)c(F)cc2c1=O
6. COc1ccc(-n2nnnc2Nc2cccc(Br)c2)cc1
7. COc1ccc(-n2nnnc2Nc2ccc(F)cc2)cc1
8. COc1ccc(Nc2nnnn2-c2cccc(F)c2)cc1

1: > 256 µg/mL; 2: > 256 µg/mL; 3: > 256 µg/mL; 4: 256 µg/mL; 5: 0.0625 µg/mL; 6: > 256 µg/mL; 7: 128 µg/mL; 8: > 256 µg/mL

###

System: Mycobacterium kansasii
Test: Antibacterial activity against Mycobacterium kansasii assessed as inhibition of microbial growth incubated for 1 week by MABA method
Type: functional
Details: 168 h, time 1 weeks
What MIC was measured for each of the following?
Give bare numbers, in µg/mL.

The reported MIC value, Mycobacterium kansasii, for COc1ccc(-n2nnnc2Nc2cccc(Cl)c2)cc1 reads 512

For each entry beneath this line, provide reported MIC.
1. COc1ccc(Nc2nnnn2-c2cccc(F)c2)cc1
2. COc1ccc(-n2nnnc2Nc2cccc(F)c2)cc1
3. COc1ccc(Nc2nnnn2-c2ccc(Br)cc2)cc1

256
512
512

###

Test system: V79
Assay: Cytotoxicity against Chinese Hamster V79 cells assessed as reduction in cell viability measured after 72 hrs by MTT assay
Assay type: cell-based
Conditions: Cricetulus griseus, V79, 72 h
quantity_name: pIC50
Numbers only, as −log10 of the molar value.

Answered examples (5):
COc1ccc(Nc2nnnn2-c2ccccc2F)cc1 yielded pIC50 of 3.67

COc1ccc(-n2nnnc2Nc2ccc(Cl)cc2)cc1 yielded pIC50 of 3.61

COc1ccc(Nc2nnnn2-c2ccccc2Cl)cc1 yielded pIC50 of 3.99

COc1ccc(Nc2nnnn2-c2ccc(Br)cc2)cc1 yielded pIC50 of 3.90

COc1ccc(Nc2nnnn2-c2ccc(F)cc2)cc1 yielded pIC50 of 3.84

For each entry beneath this line, provide reported pIC50.
1. COc1ccc(Nc2nnnn2-c2cccc(Cl)c2)cc1
2. COc1ccc(Nc2nnnn2-c2ccc(Cl)cc2)cc1

[3.91, 3.94]

###

Tested on: Mycobacterium tuberculosis
Assay: Antitubercular activity against Mycobacterium tuberculosis H37Rv ATCC 25618 assessed as inhibition of microbial growth by classical test tube method
Type: functional
quantity_name: MIC (µg/mL)
Give bare numbers, in µg/mL.

For each entry beneath this line, provide reported MIC.
1. COc1ccc(NC(=S)Nc2ccccc2Br)cc1
2. COc1ccc(NC(=S)Nc2ccccc2Cl)cc1
3. COc1ccc(NC(=S)Nc2cccc(F)c2)cc1

50
25
50

###

Tested on: Mycobacterium tuberculosis
Test: Antitubercular activity against Mycobacterium tuberculosis H37Rv ATCC 25618 assessed as inhibition of microbial growth incubated for 1 week by MABA method
Assay type: functional
Conditions: H37Rv ATCC 25618, 168 h, time 1 weeks
quantity_name: MIC (mg/L)
Give bare numbers, in mg/L.

Answered examples (3):
COc1ccc(Nc2nnnn2-c2ccccc2Br)cc1 yielded MIC of 16

COc1ccc(Nc2nnnn2-c2ccc(F)cc2)cc1 yielded MIC of 8

COc1ccc(Nc2nnnn2-c2ccccc2Cl)cc1 yielded MIC of 8

For each entry beneath this line, provide reported MIC.
1. COc1ccc(-n2nnnc2Nc2ccc(F)cc2)cc1
2. COc1ccc(-n2nnnc2Nc2ccc(Br)cc2)cc1
3. COc1ccc(-n2nnnc2Nc2cccc(Br)c2)cc1
4. COc1ccc(-n2nnnc2Nc2ccccc2F)cc1
5. COc1ccc(-n2nnnc2Nc2ccccc2Br)cc1

1. 32
2. 2
3. 2
4. 16
5. 64

For each entry beneath this line, provide reported MIC.
1. COc1ccc(-n2nnnc2Nc2ccc(Cl)cc2)cc1
2. COc1ccc(-n2nnnc2Nc2cccc(Cl)c2)cc1
3. COc1ccc(Nc2nnnn2-c2ccc(Cl)cc2)cc1
4. COc1ccc(Nc2nnnn2-c2cccc(F)c2)cc1
5. COc1ccc(-n2nnnc2Nc2cccc(F)c2)cc1
6. CN[C@@H]1[C@H](O[C@H]2[C@H](O[C@H]3[C@H](O)[C@@H](O)[C@H](N=C(N)N)[C@@H](O)[C@@H]3N=C(N)N)O[C@@H](C)[C@]2(O)C=O)O[C@@H](CO)[C@H](O)[C@H]1O
7. COc1ccc(Nc2nnnn2-c2cccc(Cl)c2)cc1
8. COc1ccc(-n2nnnc2Nc2ccccc2Cl)cc1

1. 16
2. 32
3. 8
4. 16
5. 8
6. 1
7. 8
8. 8

For each entry beneath this line, provide reported MIC.
1. COc1ccc(Nc2nnnn2-c2ccccc2F)cc1
2. CO[C@H]1/C=C/O[C@@]2(C)Oc3c(C)c(O)c4c(O)c(c(/C=N/N5CCN(C)CC5)c(O)c4c3C2=O)NC(=O)/C(C)=C\C=C\[C@H](C)[C@H](O)[C@@H](C)[C@@H](O)[C@@H](C)[C@H](OC(C)=O)[C@@H]1C

16
1

For each entry beneath this line, provide reported MIC.
1. COc1ccc(Nc2nnnn2-c2ccc(Br)cc2)cc1
2. COc1ccc(Nc2nnnn2-c2cccc(Br)c2)cc1
3. NNC(=O)c1ccncc1
4. CC[C@@H](CO)NCCN[C@@H](CC)CO

[16, 16, 0.125, 2]

###

Tested on: Mycobacterium kansasii
Assay: Antibacterial activity against Mycobacterium kansasii assessed as inhibition of microbial growth incubated for 1 week by MABA method
Format: functional
Details: 168 h, time 1 weeks
quantity_name: MIC (µg/mL)
Answers are plain numbers, in µg/mL.

For each entry beneath this line, provide reported MIC.
1. COc1ccc(-n2nnnc2Nc2ccccc2Br)cc1
2. NNC(=O)c1ccncc1
3. COc1ccc(Nc2nnnn2-c2ccccc2Br)cc1
4. COc1ccc(Nc2nnnn2-c2ccccc2F)cc1
5. COc1ccc(Nc2nnnn2-c2ccc(Cl)cc2)cc1
6. COc1ccc(-n2nnnc2Nc2cccc(Br)c2)cc1
7. COc1ccc(Nc2nnnn2-c2cccc(Br)c2)cc1

512
32
256
256
512
512
512

For each entry beneath this line, provide reported MIC.
1. COc1ccc(Nc2nnnn2-c2cccc(Cl)c2)cc1
2. COc1ccc(Nc2nnnn2-c2ccc(F)cc2)cc1
3. COc1ccc(-n2nnnc2Nc2ccccc2Cl)cc1
4. COc1ccc(-n2nnnc2Nc2ccc(Br)cc2)cc1
5. COc1ccc(-n2nnnc2Nc2ccc(F)cc2)cc1
6. COc1ccc(Nc2nnnn2-c2ccccc2Cl)cc1

1: 512; 2: 512; 3: 512; 4: 512; 5: 512; 6: 256

###

Tested on: Proteus vulgaris
Assay: Antibacterial activity against Proteus vulgaris NCTC 4635 assessed as bacterial growth inhibition measured after 18 hrs by two-fold serial microdilution method
Assay type: functional
What MIC was measured for each of the following?

The reported MIC value, Proteus vulgaris, for COc1ccc(NC(=S)Nc2ccccc2Br)cc1 reads > 256 µg/mL

For each entry beneath this line, provide reported MIC.
1. COc1ccc(NC(=S)Nc2cccc(Br)c2)cc1
2. COc1ccc(NC(=S)Nc2ccc(Cl)cc2)cc1
3. COc1ccc(-n2nnnc2Nc2ccc(F)cc2)cc1
4. COc1ccc(-n2nnnc2Nc2ccc(Cl)cc2)cc1
5. COc1ccc(-n2nnnc2Nc2ccccc2F)cc1
6. COc1ccc(-n2nnnc2Nc2ccccc2Br)cc1
7. COc1ccc(NC(S)=Nc2ccc(F)cc2)cc1
8. COc1ccc(NC(=S)Nc2ccc(Br)cc2)cc1

1: > 256 µg/mL; 2: > 256 µg/mL; 3: 128 µg/mL; 4: 128 µg/mL; 5: > 256 µg/mL; 6: > 256 µg/mL; 7: > 256 µg/mL; 8: > 256 µg/mL
